Species: Rattus norvegicus
Assay: Open TG-GATES - Regimen: Daily Repeat
Format: toxicity, organism-based, Sprague-Dawley
Set-up: regimen Daily Repeat, gender Male, age 6 weeks
Conditions: in vivo, po, 100 mg/kg, […], tissue Plasma, route gavage, dose level Low, time 14 day
Could you please report measured RALB for the items listed next?
Response body: numeric value in g/dL, unit text excluded.

IN: Name the recorded RALB for CCCCNC(=O)NS(=O)(=O)c1ccc(C)cc1 [TOLBUTAMIDE] .
OUT: 2.6

IN: Please give the result for CC(S)C(=O)NCC(=O)O (centres undefined) [TIOPRONIN] too.
OUT: 3.1

IN: Lookup CC(=O)[C@@]1(O)CC[C@H]2[C@@H]3C=C(Cl)C4=CC(=O)CC[C@]4(C)[C@H]3CC[C@@]21C [CHLORMADINONE]
OUT: 3.1

IN: Repeat with O=C(O)c1ccccc1Nc1ccccc1 [FENAMIC ACID]
OUT: 2.7
